Each recorded value in this set is attributed to patent US10342809B2.

Below, each of the compounds is paired with its reported oocyte electrophysiology 0.1 μM value.
Target: rat α1β2γ2L type GABAA receptors expressed in Xenopus laevis oocytes (Rattus norvegicus, UniProt P62813+P63138)
Construct: expressed in transfected cells; host or cells: Xenopus laevis oocytes
Sequence (P62813 28-455): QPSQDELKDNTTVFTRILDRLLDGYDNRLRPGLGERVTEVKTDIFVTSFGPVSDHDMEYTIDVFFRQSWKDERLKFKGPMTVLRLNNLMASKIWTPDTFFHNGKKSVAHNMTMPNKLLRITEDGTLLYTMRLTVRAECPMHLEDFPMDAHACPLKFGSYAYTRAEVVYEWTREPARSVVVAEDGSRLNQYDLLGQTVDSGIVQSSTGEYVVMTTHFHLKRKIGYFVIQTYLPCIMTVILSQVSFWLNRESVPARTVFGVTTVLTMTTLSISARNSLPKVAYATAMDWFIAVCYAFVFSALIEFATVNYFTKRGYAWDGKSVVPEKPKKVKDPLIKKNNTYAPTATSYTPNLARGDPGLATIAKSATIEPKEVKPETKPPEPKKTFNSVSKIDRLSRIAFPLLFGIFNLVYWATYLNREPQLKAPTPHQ
Sequence (P63138 26-474): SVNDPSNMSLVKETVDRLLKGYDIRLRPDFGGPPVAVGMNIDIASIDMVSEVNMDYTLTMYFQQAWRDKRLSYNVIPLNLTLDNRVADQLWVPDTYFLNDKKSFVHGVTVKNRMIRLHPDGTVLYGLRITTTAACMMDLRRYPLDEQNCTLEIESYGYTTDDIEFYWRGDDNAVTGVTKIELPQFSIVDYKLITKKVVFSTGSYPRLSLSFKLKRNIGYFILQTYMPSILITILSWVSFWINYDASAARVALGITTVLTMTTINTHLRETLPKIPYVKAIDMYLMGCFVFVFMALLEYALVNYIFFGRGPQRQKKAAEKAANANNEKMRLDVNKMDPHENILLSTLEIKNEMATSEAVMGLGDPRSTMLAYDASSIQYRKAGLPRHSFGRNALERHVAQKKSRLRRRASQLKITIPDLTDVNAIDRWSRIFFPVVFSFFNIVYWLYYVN
Sequence (P18508 with tags, fused parts or gaps INS375LLRMFSFK partner): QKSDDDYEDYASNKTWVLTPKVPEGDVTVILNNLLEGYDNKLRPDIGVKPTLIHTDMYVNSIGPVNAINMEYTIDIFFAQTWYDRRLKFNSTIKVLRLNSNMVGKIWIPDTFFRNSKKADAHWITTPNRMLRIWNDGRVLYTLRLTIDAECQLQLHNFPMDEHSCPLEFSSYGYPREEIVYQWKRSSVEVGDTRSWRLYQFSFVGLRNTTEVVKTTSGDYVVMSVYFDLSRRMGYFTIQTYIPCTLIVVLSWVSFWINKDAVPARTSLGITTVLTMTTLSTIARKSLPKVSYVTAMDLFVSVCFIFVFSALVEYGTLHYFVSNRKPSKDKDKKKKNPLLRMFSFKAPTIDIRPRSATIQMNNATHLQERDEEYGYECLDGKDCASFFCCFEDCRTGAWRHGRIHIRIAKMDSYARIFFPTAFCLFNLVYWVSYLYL
Assay: Oocyte electrophysiology: potentiation of GABA-mediated chloride currents and direct gating
Assay type: cell-based
Conditions: ratio of currents in presence/absence of 0.1 μM compound; 2 μM GABA; ± SEM, N ≥4
Give your answer as a number; write no unit.

COC[C@]12CC[C@@H](O)CC1=CC[C@@H]1[C@@H]2CC[C@]2(C)[C@@H](OC)CC[C@@H]12 [Compound 25]	0.94

Exam item: Specify measured oocyte electrophysiology 0.1 μM for COC[C@]12CCC(O)CC1CC[C@@H]1[C@@H]2CC[C@]2(C)C(=O)CC[C@@H]12 (stereo in doubt) [Compound 30] .
Marked response: 0.90

Exam item: Give the reported value of oocyte electrophysiology 0.1 μM for this record: COC[C@]12CCC(=O)C[C@@H]1CC[C@H]1[C@@H]3CC[C@H](OC)[C@@]3(C)CC[C@@H]12 [Compound 7, (5α,17β)-17,19-Dimethoxyandrostan-3-one]
Marked response: 1.00

Exam item: Please give measured oocyte electrophysiology 0.1 μM of the following entry: COC[C@]12CC[C@@H](O)C[C@@H]1CC[C@@H]1[C@@H]2CC[C@]2(C)C(=O)CC[C@@H]12 [Compound 11]
Marked response: 0.71
